I'd be grateful if you could share measured Transcripts per million (rpm) for these entries.
system: L. acidophilus NCFM; assay: RNA-seq transcriptional analysis of L. acidophilus NCFM growing on plant glycosides; format: cell-based, Lactobacillus acidophilus; details: gene LBA1769 (Hypothetical protein)
Give bare numbers, in rpm.

Recorded results for 3 compounds are shown here.
O=c1ccc2cc(O[C@@H]3O[C@H](CO)[C@@H](O)[C@H](O)[C@H]3O)c(O)cc2o1 ... 6023.9
OCc1ccccc1O[C@@H]1O[C@H](CO)[C@@H](O)[C@H](O)[C@H]1O ... 5527.5
OC[C@H]1O[C@@H](O[C@H]2[C@H](O)[C@@H](O)[C@@H](O)O[C@@H]2CO)[C@H](O)[C@@H](O)[C@H]1O ... 5636.3

Read the next record carefully.
If you can, please state the reported Transcripts per million (rpm) value of N#C[C@H](O[C@@H]1O[C@H](CO[C@@H]2O[C@H](CO)[C@@H](O)[C@H](O)[C@H]2O)[C@@H](O)[C@H](O)[C@H]1O)c1ccccc1 .
10240.4
